Below, each of the molecules is paired with its reported IC50 value.
Molecular target: Hsp82 (Saccharomyces cerevisiae)
Sequence (P02829 whole entry): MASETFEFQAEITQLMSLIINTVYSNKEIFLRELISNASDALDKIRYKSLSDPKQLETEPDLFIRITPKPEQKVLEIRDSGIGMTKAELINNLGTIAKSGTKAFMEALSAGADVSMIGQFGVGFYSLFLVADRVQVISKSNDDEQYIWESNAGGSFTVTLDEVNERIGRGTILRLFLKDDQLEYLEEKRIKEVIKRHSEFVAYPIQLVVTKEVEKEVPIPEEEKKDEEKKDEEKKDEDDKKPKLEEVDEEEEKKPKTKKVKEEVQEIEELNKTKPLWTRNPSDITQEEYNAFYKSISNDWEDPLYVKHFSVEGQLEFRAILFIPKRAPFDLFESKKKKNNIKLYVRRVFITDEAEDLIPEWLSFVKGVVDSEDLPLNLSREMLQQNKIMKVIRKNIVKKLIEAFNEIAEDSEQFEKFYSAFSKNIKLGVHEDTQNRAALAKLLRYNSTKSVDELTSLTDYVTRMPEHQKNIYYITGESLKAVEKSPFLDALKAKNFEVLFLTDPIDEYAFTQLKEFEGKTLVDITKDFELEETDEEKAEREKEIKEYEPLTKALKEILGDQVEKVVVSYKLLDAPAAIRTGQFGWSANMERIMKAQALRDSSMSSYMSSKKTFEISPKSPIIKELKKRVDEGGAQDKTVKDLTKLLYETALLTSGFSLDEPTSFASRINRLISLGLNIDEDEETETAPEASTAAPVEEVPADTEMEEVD

# example entries with known answers
O=C(NC1c2ccccc2-c2c(-c3cnc4[nH]ccc4c3)cccc21)c1ccnc2[nH]ccc12 (racemic); < 1000 nM
O=C(NC1c2ccccc2-c2c(C3=Nc4ccccc4OC3)cccc21)c1ccnc2[nH]ccc12 (racemic); 1000 to 10000 nM
O=C(NC1c2ccccc2-c2c(-c3ccc4ccccc4n3)cccc21)c1ccnc2[nH]ccc12 (racemic); 1000 to 10000 nM
O=C(NC1c2ccccc2-c2c(-c3ccc(F)nc3)cccc21)c1ccnc2[nH]ccc12 (racemic); 1000 to 10000 nM

Ask: Form field: reported IC50 of O=C(NC1c2ccccc2-c2c(-c3cnc4c(c3)CCCN4)cccc21)c1ccnc2[nH]ccc12 (racemic)
Reply: 1000 to 10000 nM

Ask: Another molecule to check: Nc1ncc(Cl)c(C(=O)NC2c3ccccc3-c3c(-c4ncc[nH]4)cccc32)n1 (racemic)
Reply: 1000 to 10000 nM

Ask: Now give it for O=C(NC1c2ccccc2-c2c(-c3nc4ccccc4o3)cccc21)c1ccnc2[nH]ccc12 (racemic) too.
Reply: < 1000 nM

Ask: Same question for O=C(NC1c2ccccc2-c2c(-c3ccc(N4CCOCC4)nc3)cccc21)c1ccnc2[nH]ccc12 (racemic) please.
Reply: 1000 to 10000 nM

###

List of melting point values.

O=C(NC1c2ccccc2-c2c(-c3cnc4ccccc4c3)cccc21)c1ccnc2[nH]ccc12 (racemic) [Example 3]; > 260 °C
O=C(NC1c2ccccc2-c2c(-c3cncnc3)cccc21)c1ccnc2[nH]ccc12 (racemic) [Example 7]; > 260 °C
O=C(NC1c2ccccc2-c2c(C(=O)n3ncc4ccccc43)cccc21)c1ccnc2[nH]ccc12 (racemic) [Example 16]; 220 °C

Ask: Quick check: melting point of O=C(NC1c2ccccc2-c2c(-c3nc4ccccc4o3)cccc21)c1ccnc2[nH]ccc12 (racemic) [Example 6] ?
Reply: > 260 °C

Ask: And what about the compound O=C(NC1c2ccccc2-c2c(-c3cn4ccccc4n3)cccc21)c1ccnc2[nH]ccc12 (racemic) [Example 19] ?
Reply: 270 °C

Ask: Entry O=C(NC1c2ccccc2-c2c(-c3cc4ccccc4o3)cccc21)c1ccnc2[nH]ccc12 (racemic) [Example 2] please
Reply: > 260 °C

Ask: Now consider O=C(NC1c2ccccc2-c2c(-c3ccc(F)nc3)cccc21)c1ccnc2[nH]ccc12 (racemic) [Example 4] and answer again.
Reply: > 260 °C

Ask: What would you report for O=C(NC1c2ccccc2-c2c(-c3ccc4ccccc4n3)cccc21)c1ccnc2[nH]ccc12 (racemic) [Example 8] ?
Reply: 260 °C
